system: SARS-CoV-2 Gamma (P1); assay: microbe, parasite or virus in culture; assay type: cell-based; conditions: Severe acute respiratory syndrome coronavirus 2, Vero C1008, Gamma (P1)
measured parameter: pEC50
One number for each entry, as −log10 of the molar value.

**Query** State its pEC50 on SARS-CoV-2 Gamma (P1): C=C(C)[C@@H]1CC[C@]2(CO)CC[C@]3(C)[C@H](CC[C@@H]4[C@@]5(C)CC[C@@H](O)C(C)(C)[C@@H]5CC[C@]43C)[C@@H]12 [Compound 5, 3-epi-Betulin]
**Result** 5.49
